meta.source: the supplement of paper PMC9233669

- Test system: biotinyl-Met-oxazolone
- assay overview: self-aminoacylation, catalytic enhancement (BMO) (fold over background); higher = more active; k-Seq, kA / k0A0; sequences stand for … in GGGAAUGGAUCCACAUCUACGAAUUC…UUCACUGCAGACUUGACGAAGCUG
Variants at the floor of the assay were thinned out.
measurement type: self-aminoacylation
// return a plain number; no unit text

Examples with their reported self-aminoacylation follow.
INSERT INTO assay_data (sequence_input, measurement) VALUES
  ('AAGUUUGCUUAUAGUCGCAAG [Fam3.1 aminoacylation ribozyme variant]', 0.801),
  ('CUUCACCUAGGACAUCGGGUG [Fam2.2 aminoacylation ribozyme variant]', 3.03),
  ('AUUCCCCUGGUCAUCGAGUAA [Fam2.1 aminoacylation ribozyme variant]', 1.69),
  ('AUUCAGCUAAGUCAUCGGGUG [Fam2.2 aminoacylation ribozyme variant]', 3),
  ('CCACACGUCAAGCAAUAGGUC [Fam1B.1 aminoacylation ribozyme variant]', 0.765);

Input: # query: self-aminoacylation of entry AUUACCCUGGUCAGCGAGAGA [Fam2.1 aminoacylation ribozyme variant]
Output: 1.27

Input: Fill in the blank: the reported self-aminoacylation of GUUACCAUGGUCAUCGAGUGA [Fam2.1 aminoacylation ribozyme variant] is ____.
Output: 8.11

====

- Test system: biotinyl-Ile-oxazolone
- assay overview: self-aminoacylation, catalytic enhancement (BIO) (fold over background); higher = more active; k-Seq, kA / k0A0; sequences stand for … in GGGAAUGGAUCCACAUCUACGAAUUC…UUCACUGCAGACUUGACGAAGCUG
Fewer inactive variants are shown than the library holds.
Listed here are sequences together with their documented self-aminoacylation.
When you answer, write just the number.

As a guide, the following entries are already answered.
INSERT INTO measurements (sequence_input, measurement) VALUES
  ('AUUCACCUAGGUCUUCGCGUG [Fam2.2 aminoacylation ribozyme variant]', 2.95),
  ('AUUACCCUGGUCAGCGAGAGA [Fam2.1 aminoacylation ribozyme variant]', 1.43),
  ('CAUCUUCAAACAAUCGGUCUG [Fam1A.1 aminoacylation ribozyme variant]', 1.14),
  ('AGUACCCUGGUCCUCGAGUGA [Fam2.1 aminoacylation ribozyme variant]', 2.7);

Input: Could you tell me which self-aminoacylation is on file for AGUACCAUGGUCAUCGAGUGA [Fam2.1 aminoacylation ribozyme variant] ?
Output: 4.22

Input: Consider the sequence AUUACACUGGUCGUCGAGUGA [Fam2.1 aminoacylation ribozyme variant] and give its measured self-aminoacylation.
Output: 1.25

Input: For the sequence AUUACCAUGGUCAUCGAGUCA [Fam2.1 aminoacylation ribozyme variant] , what self-aminoacylation is on record?
Output: 0.821

Input: Record request: self-aminoacylation value, item AAGUUUCCUAAUAGUCACAAG [Fam3.1 aminoacylation ribozyme variant]
Output: 1.8

Input: Tell me the measured self-aminoacylation of CCACACUCCAAGCAAUAGGUC [Fam1B.1 aminoacylation ribozyme variant] , please.
Output: 0.741

====

- Tested on: biotinyl-Phe-oxazolone
- assay overview: self-aminoacylation, catalytic enhancement (BFO) (fold over background); higher = more active; k-Seq, kA / k0A0; sequences stand for … in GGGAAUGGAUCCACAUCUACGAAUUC…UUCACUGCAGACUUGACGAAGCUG
Fewer inactive variants are shown than the library holds.
Given measured self-aminoacylation, output YES if it is greater than or equal to 9 and NO if not.

Look over these answered cases.
INSERT INTO assay_data (sequence_input, classification) VALUES
  ('ACUCACCUAGGUCUUCGGGUG [Fam2.2 aminoacylation ribozyme variant]', 'YES'),
  ('AAGUUUGGUAACAGUCGCAAG [Fam3.1 aminoacylation ribozyme variant]', 'NO'),
  ('CUACUUCAAAGAAUCCGUCUG [Fam1A.1 aminoacylation ribozyme variant]', 'NO'),
  ('CUGCUUCAAACAAUCGGCCUG [Fam1A.1 aminoacylation ribozyme variant]', 'YES'),
  ('AUUCACCUAGGCCCUCGGGUG [Fam2.2 aminoacylation ribozyme variant]', 'YES');

Input: Please check the record CUUCUCCUAGGUCAUCGGGUG [Fam2.2 aminoacylation ribozyme variant] and state if its self-aminoacylation is at or above 9.
Output: YES

Input: Is the recorded value of self-aminoacylation equal to or greater than 9 for this sequence? CUACUUCAAACAAUCUGUUUG [Fam1A.1 aminoacylation ribozyme variant]
Output: NO

====

- Test system: biotinyl-Phe-oxazolone
- assay overview: self-aminoacylation, catalytic enhancement (BFO) (fold over background); higher = more active; k-Seq, kA / k0A0; sequences stand for … in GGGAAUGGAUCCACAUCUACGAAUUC…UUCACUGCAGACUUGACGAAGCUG
This sample holds only a part of the variants without activity.
measurement type: self-aminoacylation
Lab note: record the figure alone, no unit after it.

Recorded results for 8 sequences are shown here.
INSERT INTO measurements (sequence_input, measurement_type, measurement) VALUES
  ('AAGUUUGCUAAUAGAGGCAAG [Fam3.1 aminoacylation ribozyme variant]', 'self-aminoacylation', 0.955),
  ('AUUCACCUAGGUCAUCGGCCG [Fam2.2 aminoacylation ribozyme variant]', 'self-aminoacylation', 16.6),
  ('UUUCACCUAGGUCAUCGGGAG [Fam2.2 aminoacylation ribozyme variant]', 'self-aminoacylation', 1.4),
  ('AGUGCCCUGGUCAUCGAGUGA [Fam2.1 aminoacylation ribozyme variant]', 'self-aminoacylation', 67.6),
  ('CCACACUUCAAGAAACCGGUC [Fam1B.1 aminoacylation ribozyme variant]', 'self-aminoacylation', 0.875),
  ('CUACUUCUAACAAUCGGUCCG [Fam1A.1 aminoacylation ribozyme variant]', 'self-aminoacylation', 0.505),
  ('CUACUUCCUACAAUCGGUCUG [Fam1A.1 aminoacylation ribozyme variant]', 'self-aminoacylation', 0.51),
  ('CCAAACUUCUAGCAAUCGGUC [Fam1B.1 aminoacylation ribozyme variant]', 'self-aminoacylation', 1.01);

Input: What does the data say about its self-aminoacylation? Entry: AUUACCGUGGUCAUCGAGAGA [Fam2.1 aminoacylation ribozyme variant]
Output: 0.92

Input: Quick one: self-aminoacylation of AAGGUUGCUAAUAGUCGCAAA [Fam3.1 aminoacylation ribozyme variant] ?
Output: 1.51

Input: Given the entry AUUACCCUGGCCAUCGAUUGA [Fam2.1 aminoacylation ribozyme variant] , report its measured self-aminoacylation.
Output: 0.28

Input: // query self-aminoacylation value for entry AUUGACCUAGGUCUUCGGGUG [Fam2.2 aminoacylation ribozyme variant]
Output: 19

Input: Given the entry AAGUUUGCUAAUAGUGGGAAG [Fam3.1 aminoacylation ribozyme variant] , report its measured self-aminoacylation.
Output: 1.48

Input: Need self-aminoacylation, item CUACUCCAACCAAUCGGUCUG [Fam1A.1 aminoacylation ribozyme variant]
Output: 0.726

====

Each entry below lists one item and its recorded self-aminoacylation value.
- Test system: biotinyl-Val-oxazolone
- assay overview: self-aminoacylation, catalytic enhancement (BVO) (fold over background); higher = more active; k-Seq, kA / k0A0; sequences stand for … in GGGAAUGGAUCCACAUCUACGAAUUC…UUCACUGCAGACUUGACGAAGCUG
Fewer inactive variants are shown than the library holds.

INSERT INTO measurements (sequence_input, measurement) VALUES
  ('UCACACUUCCAGCAAUCGGUC [Fam1B.1 aminoacylation ribozyme variant]', 1.24),
  ('ACUCGCCUAGGUCAUCGGGUG [Fam2.2 aminoacylation ribozyme variant]', 6.73),
  ('CUUGACCUAGGUCAUCGGGUG [Fam2.2 aminoacylation ribozyme variant]', 3.87),
  ('AAGUUUGCUAAUAGUUGCACG [Fam3.1 aminoacylation ribozyme variant]', 1.14),
  ('AUUACACUGGUCAUCGAGUGU [Fam2.1 aminoacylation ribozyme variant]', 1.66),
  ('ACACCCUUCAAGCAAUCGGUC [Fam1B.1 aminoacylation ribozyme variant]', 1.02),
  ('CCACACUCCAAGCAAACGGUC [Fam1B.1 aminoacylation ribozyme variant]', 0.773),
  ('AUUACCCUGGACAUCGAGUUA [Fam2.1 aminoacylation ribozyme variant]', 0.75),
  ('AUUCUUCUAGGUCAUCGGGUG [Fam2.2 aminoacylation ribozyme variant]', 5.28),
  ('UUUACCCUGGUCAUCCAGUGA [Fam2.1 aminoacylation ribozyme variant]', 2.98);

Input: // map AUUCACCCCGGUCAUCGGGUG [Fam2.2 aminoacylation ribozyme variant] to recorded self-aminoacylation (system: biotinyl-Val-oxazolone)
Output: 3.99

Input: Give recorded self-aminoacylation with biotinyl-Val-oxazolone for the following sequence: AUUACCUUGGACAUCGAGUGA [Fam2.1 aminoacylation ribozyme variant]
Output: 2.9

Input: Form entry - test system: biotinyl-Val-oxazolone; read-out: self-aminoacylation; sequence: CUACUUCAAAGAAUCCGUCUG [Fam1A.1 aminoacylation ribozyme variant]
Output: 0.915

Input: Request: self-aminoacylation, test system biotinyl-Val-oxazolone, entry CUACCUCAAACAAGCGGUCUG [Fam1A.1 aminoacylation ribozyme variant]
Output: 0.97

Input: Test system biotinyl-Val-oxazolone; read-out self-aminoacylation; what value for AUUACCCUGGUCAACAAGUGA [Fam2.1 aminoacylation ribozyme variant] ?
Output: 3.85
